IC50 reference
# measured target: UniProt Q72874
# experimental details: Compound was tested for inhibitory activity against recombinant HIV-1 protease using 125 I-SPA (scintillation proximity assay)
Numeric only. Scale: nM

Look over these answered cases.
[
  {
    "sample smiles": "O=C(N[C@H]1CCCC[C@@H]1NC(=O)[C@H](Cc1ccccc1)CC(O)C[C@@H](Cc1ccccc1)C(=O)N[C@H]1CCCC[C@@H]1NC(=O)c1ccccn1)c1ccccn1",
    "IC50 / nM": 400
  },
  {
    "sample smiles": "CC(=O)N[C@H]1CCCC[C@@H]1NC(=O)[C@H](Cc1ccccc1)CC(O)C[C@@H](Cc1ccccc1)C(=O)N[C@H]1CCCC[C@@H]1NC(C)=O",
    "IC50 / nM": 3000
  }
]

# O=C(N[C@H]1CCCC[C@@H]1NC(=O)[C@H](Cc1ccccc1)CC(O)C[C@@H](Cc1ccccc1)C(=O)N[C@H]1CCCC[C@@H]1NC(=O)c1ccc2ccccc2n1)c1ccc2ccccc2n1 with UniProt Q72874: IC50 is 40

# O=C(N[C@H]1CCCC[C@@H]1NC(=O)[C@H](Cc1ccccc1)CC(O)C[C@@H](Cc1ccccc1)C(=O)N[C@H]1CCCC[C@@H]1NC(=O)c1cccnc1)c1cccnc1 with UniProt Q72874: IC50 is 600

# O=C(N[C@H]1CCCC[C@@H]1NC(=O)[C@H](Cc1ccccc1)CC(O)C[C@@H](Cc1ccccc1)C(=O)N[C@H]1CCCC[C@@H]1NC(=O)c1cc2ccccc2cn1)c1cc2ccccc2cn1 with UniProt Q72874: IC50 is 45

# O=C(N[C@H]1CCCC[C@@H]1NC(=O)[C@H](Cc1ccccc1)CC(O)C[C@@H](Cc1ccccc1)C(=O)N[C@H]1CCCC[C@@H]1NC(=O)c1ccncc1)c1ccncc1 with UniProt Q72874: IC50 is 350
